tested on: DeltatarO mutant; experiment: S. aureus survival, RN4220 and DeltatarO strains – OD600, teichoic acid synthesis inhibitors, primary screen (AID 463173); details: S. aureus RN4220 wild type/DeltatarO growth, OD600, 18 h, hits give low values, screened at 18.75 µg/mL (by protocol)
About 4,300 (8.3%) of roughly 52,000 compounds were called active. The list comes from a sample in which actives are over-represented; it also holds close analogues and randomly drawn compounds.
survival by entry:

COMPOUND: Cc1ccc2oc(C(=O)Nc3sc4c(c3C(=O)NCc3ccccc3)CCCC4)cc(=O)c2c1
UNIT OF MEASUREMENT: %
survival: 66
//
COMPOUND: Cc1ccc2c(=O)cc(C(=O)Nc3sc4c(c3C(=O)NCc3ccco3)CCCC4)oc2c1C
UNIT OF MEASUREMENT: %
survival: 80
//
COMPOUND: Cc1ccc2oc(C(=O)Nc3sc4c(c3C(=O)NCc3ccco3)CCC4)cc(=O)c2c1
UNIT OF MEASUREMENT: %
survival: 82
//
COMPOUND: O=C(Nc1sc2c(c1C(=O)NCc1ccccc1)CCCC2)c1cc(=O)c2cc(Cl)ccc2o1
UNIT OF MEASUREMENT: %
survival: 49
//
COMPOUND: Cc1ccc2c(=O)cc(C(=O)Nc3sc4c(c3C(=O)NCc3ccccc3)CCCC4)oc2c1C
UNIT OF MEASUREMENT: %
survival: 89
//
COMPOUND: Cc1cccc(OCC(=O)Nc2nnc(S(=O)(=O)N3CCc4ccccc43)s2)c1
UNIT OF MEASUREMENT: %
survival: 16
//
COMPOUND: COc1ccc(OCC(=O)Nc2nnc(S(=O)(=O)N3CCc4ccccc43)s2)cc1
UNIT OF MEASUREMENT: %
survival: 70
//
COMPOUND: Cc1ccc(N(C(=O)Cn2nnc(-c3ccc(C)o3)n2)C(C(=O)NC2CCCCC2)c2ccc(F)cc2)c(C)c1 (centres undefined)
UNIT OF MEASUREMENT: %
survival: 66
//
COMPOUND: Cc1cc2oc(C(=O)Nc3sc4c(c3C(=O)NCc3ccco3)CCC4)cc(=O)c2cc1C
UNIT OF MEASUREMENT: %
survival: 38

---

survival by entry:
tested on: DeltatarO mutant; assay: S. aureus survival, RN4220 and DeltatarO strains – OD600, teichoic acid synthesis inhibitors, primary screen (AID 463173); conditions: S. aureus RN4220 wild type/DeltatarO growth, OD600, 18 h, hits give low values, screened at 18.75 µg/mL (by protocol)
Hit rate of the full screen: of about 52,000 compounds, about 4,300 (8.3%) were called active. This excerpt belongs to a sample that is enriched for actives.
OBSERVATION TYPE: survival (%)

COMPOUND: Clc1ccc(C(c2ccccc2)c2c[nH]c3ccccc23)s1 (stereo unspecified)
OBSERVATION TYPE: survival
UNIT OF MEASUREMENT: %
VALUE OBSERVED: -3

COMPOUND: Cc1ccc(N2CNC(=O)c3c(C)cc(C)nc32)cc1
OBSERVATION TYPE: survival
UNIT OF MEASUREMENT: %
VALUE OBSERVED: 74

COMPOUND: Cc1ccn2c(Nc3ccc(F)cc3)c(-c3ccccn3)nc2c1
OBSERVATION TYPE: survival
UNIT OF MEASUREMENT: %
VALUE OBSERVED: 105

COMPOUND: CC(C)c1ccc(Nc2c(-c3ccco3)nc3ccccn23)cc1
OBSERVATION TYPE: survival
UNIT OF MEASUREMENT: %
VALUE OBSERVED: 42

COMPOUND: CC(C)c1ccc(Nc2c(-c3ccccn3)nc3ccccn23)cc1
OBSERVATION TYPE: survival
UNIT OF MEASUREMENT: %
VALUE OBSERVED: -4

COMPOUND: CC(C)c1nc2ccccn2c1NC1CCCCC1
OBSERVATION TYPE: survival
UNIT OF MEASUREMENT: %
VALUE OBSERVED: 102
